system: Setaria faberi (SETFA); assay: Herbicidal glasshouse test, post-emergence, SETFA; assay type: in vivo; conditions: applied at 1000 g/h, evaluated after 13 days
assay-endpoint: POST Application SETFA, percentage damage (five point scale)

Q: Note down POST Application SETFA, percentage damage (five point scale) recorded for Cc1cc(C)cc(Cn2c(=O)c(C(=O)Nc3nnnn3C)nn(C)c2=O)c1
Ans: 1 (1=0-19%)

Q: Note down POST Application SETFA, percentage damage (five point scale) recorded for Cc1ccc(-n2c(=O)c(C(=O)Nc3nnnn3C)nn(C)c2=O)cc1C
Ans: 5 (5=80-100%)

Q: Note down POST Application SETFA, percentage damage (five point scale) recorded for Cn1nnnc1NC(=O)c1nn(C)c(=O)n(Cc2c(Cl)cccc2Cl)c1=O
Ans: 4 (4=60-79%)

Q: Note down POST Application SETFA, percentage damage (five point scale) recorded for COc1cc(Cn2c(=O)c(C(=O)Nc3nnnn3C)nn(C)c2=O)cc(Cl)n1
Ans: 2 (2=20-39%)

Q: Note down POST Application SETFA, percentage damage (five point scale) recorded for Cn1nnnc1NC(=O)c1nn(C)c(=O)n(-c2cccc(F)c2F)c1=O
Ans: 5 (5=80-100%)

Q: Note down POST Application SETFA, percentage damage (five point scale) recorded for COCCOc1ccc(-n2c(=O)c(C(=O)Nc3nnnn3C)nn(C)c2=O)cc1
Ans: 5 (5=80-100%)

Q: Note down POST Application SETFA, percentage damage (five point scale) recorded for Cn1nnnc1NC(=O)c1nn(C)c(=O)n(-c2cc(F)cc(F)c2)c1=O
Ans: 5 (5=80-100%)

Q: Note down POST Application SETFA, percentage damage (five point scale) recorded for Cc1cc(-n2c(=O)c(C(=O)Nc3nnnn3C)nn(C)c2=O)ccc1F
Ans: 5 (5=80-100%)

Q: Note down POST Application SETFA, percentage damage (five point scale) recorded for Cn1nnnc1NC(=O)c1nn(C)c(=O)n(-c2ccc(OC(F)(F)F)cc2)c1=O
Ans: 5 (5=80-100%)

Q: Note down POST Application SETFA, percentage damage (five point scale) recorded for CCCCn1c(=O)c(C(=O)Nc2ncnn2C)nn(C)c1=O
Ans: 4 (4=60-79%)

Q: Note down POST Application SETFA, percentage damage (five point scale) recorded for COCCn1c(=O)c(C(=O)Nc2nnnn2C)nn(C)c1=O
Ans: 5 (5=80-100%)

Q: Note down POST Application SETFA, percentage damage (five point scale) recorded for Cn1nnnc1NC(=O)c1nn(C)c(=O)n(-c2cccc(Br)c2)c1=O
Ans: 5 (5=80-100%)

Q: Note down POST Application SETFA, percentage damage (five point scale) recorded for Cn1nnnc1NC(=O)c1nn(C)c(=O)n(CC2CC2)c1=O
Ans: 5 (5=80-100%)

Q: Note down POST Application SETFA, percentage damage (five point scale) recorded for Cn1nnnc1NC(=O)c1nn(C)c(=O)n(Cc2ccc(OC(F)F)cc2)c1=O
Ans: 1 (1=0-19%)

Q: Note down POST Application SETFA, percentage damage (five point scale) recorded for Cn1nnnc1NC(=O)c1nn(C)c(=O)n(CCCC(F)(F)F)c1=O
Ans: 5 (5=80-100%)

Q: Note down POST Application SETFA, percentage damage (five point scale) recorded for Cn1nnnc1NC(=O)c1nn(C)c(=O)n(-c2ccc(OC(F)(F)F)c(F)c2)c1=O
Ans: 5 (5=80-100%)

Q: Note down POST Application SETFA, percentage damage (five point scale) recorded for CC(C)CCn1nc(C(=O)Nc2nnnn2C)c(=O)n(-c2cccc(F)c2)c1=O
Ans: 3 (3=40-59%)

Q: Note down POST Application SETFA, percentage damage (five point scale) recorded for CCCCn1c(=O)c(C(=O)Nc2nnnn2C)cn(C)c1=O
Ans: 1 (1=0-19%)

Q: Note down POST Application SETFA, percentage damage (five point scale) recorded for Cn1nnnc1NC(=O)c1nn(C)c(=O)n(Cc2cccc(F)c2)c1=O
Ans: 4 (4=60-79%)

Q: Note down POST Application SETFA, percentage damage (five point scale) recorded for Cn1nnnc1NC(=O)c1nn(C)c(=O)n(Cc2cc(Cl)nc(Cl)c2)c1=O
Ans: 2 (2=20-39%)

Q: Note down POST Application SETFA, percentage damage (five point scale) recorded for Cn1nnnc1NC(=O)c1nn(C)c(=O)n(-c2ccc(F)cc2)c1=O
Ans: 5 (5=80-100%)

Q: Note down POST Application SETFA, percentage damage (five point scale) recorded for Cn1nnnc1NC(=O)c1nn(C)c(=O)n(-c2cccc(C(F)(F)F)c2)c1=O
Ans: 5 (5=80-100%)

Q: Note down POST Application SETFA, percentage damage (five point scale) recorded for COc1cc(-n2c(=O)c(C(=O)Nc3nnnn3C)nn(C)c2=O)ccc1F
Ans: 5 (5=80-100%)

Q: Note down POST Application SETFA, percentage damage (five point scale) recorded for CCc1ccc(-n2c(=O)c(C(=O)Nc3nnnn3C)nn(C)c2=O)cc1
Ans: 5 (5=80-100%)

Q: Note down POST Application SETFA, percentage damage (five point scale) recorded for CSc1ccc(-n2c(=O)c(C(=O)Nc3nnnn3C)nn(C)c2=O)cc1
Ans: 5 (5=80-100%)

Q: Note down POST Application SETFA, percentage damage (five point scale) recorded for Cn1nnnc1NC(=O)c1nn(C)c(=O)n(Cc2ccc(F)c(F)c2)c1=O
Ans: 2 (2=20-39%)

Q: Note down POST Application SETFA, percentage damage (five point scale) recorded for CCCn1nnnc1NC(=O)c1nn(C)c(=O)n(-c2ccc(F)cc2)c1=O
Ans: 5 (5=80-100%)

Q: Note down POST Application SETFA, percentage damage (five point scale) recorded for CCCn1nnnc1NC(=O)c1cn(C)c(=O)n(-c2cccc(F)c2)c1=O
Ans: 1 (1=0-19%)

// provenance: patent US20160009693A1
